- Test target: mUSP18 (Mus musculus)
- Construct: (46-368); His-tag (N); made in house
- Sequence (Q9WTV6 46-368): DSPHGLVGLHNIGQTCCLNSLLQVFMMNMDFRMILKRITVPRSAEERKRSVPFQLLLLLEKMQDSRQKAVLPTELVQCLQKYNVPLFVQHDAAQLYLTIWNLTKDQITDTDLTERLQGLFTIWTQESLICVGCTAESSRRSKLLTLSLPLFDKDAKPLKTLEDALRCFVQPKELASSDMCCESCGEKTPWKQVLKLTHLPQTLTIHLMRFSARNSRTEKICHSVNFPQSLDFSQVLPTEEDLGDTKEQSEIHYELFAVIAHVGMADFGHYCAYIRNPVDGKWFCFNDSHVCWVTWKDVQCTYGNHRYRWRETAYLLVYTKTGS
- Run description: High-throughput screening, ISG15ct-RhoMP, single dose 1.25 µM
- Format: biochemical, murine
- Condition context: mUSP18 %inhibition; carboxylic acid (CA) building block alone; read-out: %inh CA only
Readout name: inhibition at 1.25 µM (%)

Reference set (3 entries):
CC(C)(C)OC(=O)NC1(C(=O)O)CC1; -6.62
CN1CCN(C(=O)[1C@@H]2[1C@@H](C(=O)O)C2(C)C)CC1; 5.18
CC1CN(S(=O)(=O)c2ccc(C(=O)O)cc2)CC(C)O1 (stereo not drawn); -6.73

A = O=C(O)C1(NS(=O)(=O)C=Cc2ccccc2)CCCC1
B = CN1CCN(C(=O)c2ccccc2C(=O)O)CC1
Query block: From the recorded data, which exceeds the other in inhibition at 1.25 µM: A or B ? Could you answer with the label of the item you picked?
Result block: B
(B: 9.22%, A: 0.85%)
